Entry source: paper PMC6099728

Below, each of the compounds is paired with its reported logk value.
assay: Lipophilicity determination by RP-HPLC (capacity factor k / logk); assay type: physicochemical; conditions: series C; isocratic MeOH 72%/H2O 28%, C18 column, 40 °C
assay-metric: logk

>>> test_result("CC(C)Oc1ccc(NC(=O)c2c(O)ccc3ccccc23)cc1 [16c]")
0.1619
>>> test_result("CC(C)Oc1cccc(NC(=O)c2c(O)ccc3ccccc23)c1 [15c]")
0.2214
>>> test_result("CCCOc1cccc(NC(=O)c2c(O)ccc3ccccc23)c1 [9c]")
0.3209
>>> test_result("CCC(C)Oc1cccc(NC(=O)c2c(O)ccc3ccccc23)c1 (stereo not shown) [18c]")
0.4129
>>> test_result("CCOc1cccc(NC(=O)c2c(O)ccc3ccccc23)c1 [6c]")
0.1175
>>> test_result("CCOc1ccc(NC(=O)c2c(O)ccc3ccccc23)cc1 [7c]")
0.0542
>>> test_result("CCCOc1ccccc1NC(=O)c1c(O)ccc2ccccc12 [8c]")
0.6639
>>> test_result("COc1ccc(NC(=O)c2c(O)ccc3ccccc23)cc1 [4c]")
"−0.1149"
>>> test_result("COc1ccccc1NC(=O)c1c(O)ccc2ccccc12 [2c]")
0.2518
>>> test_result("CCCOc1ccc(NC(=O)c2c(O)ccc3ccccc23)cc1 [10c]")
0.2622
>>> test_result("CCCCOc1ccccc1NC(=O)c1c(O)ccc2ccccc12 [11c]")
0.8578
>>> test_result("CCOc1ccccc1NC(=O)c1c(O)ccc2ccccc12 [5c]")
0.4759
>>> test_result("CCCCOc1ccc(NC(=O)c2c(O)ccc3ccccc23)cc1 [13c]")
0.4604

* * *

assay: Lipophilicity determination by RP-HPLC (capacity factor k / logk); assay type: physicochemical; conditions: series B; isocratic MeOH 72%/H2O 28%, C18 column, 40 °C
Please enter MET where logk is greater than or equal to 1, and NOT MET where it is lower.

>>> category_label("CCCOc1ccc(NC(=O)c2ccc3ccccc3c2O)cc1 [10b]")
"NOT MET"
>>> category_label("COc1cccc(NC(=O)c2ccc3ccccc3c2O)c1")
"NOT MET"
>>> category_label("CCC(C)Oc1cccc(NC(=O)c2ccc3ccccc3c2O)c1 (stereo not shown) [18b]")
"MET"
>>> category_label("CCCOc1ccccc1NC(=O)c1ccc2ccccc2c1O")
"MET"
>>> category_label("CCCCOc1ccccc1NC(=O)c1ccc2ccccc2c1O [11b]")
"MET"
>>> category_label("CC(C)Oc1cccc(NC(=O)c2ccc3ccccc3c2O)c1 [15b]")
"NOT MET"
>>> category_label("O=C(Nc1ccccc1)c1ccc2ccccc2c1O")
"NOT MET"
>>> category_label("CCC(C)Oc1ccccc1NC(=O)c1ccc2ccccc2c1O (stereo not shown) [17b]")
"MET"
>>> category_label("CC(C)Oc1ccc(NC(=O)c2ccc3ccccc3c2O)cc1 [16b]")
"NOT MET"
>>> category_label("CCOc1ccccc1NC(=O)c1ccc2ccccc2c1O")
"MET"
>>> category_label("COc1ccc(NC(=O)c2ccc3ccccc3c2O)cc1")
"NOT MET"
>>> category_label("CCOc1ccc(NC(=O)c2ccc3ccccc3c2O)cc1")
"NOT MET"
>>> category_label("CCOc1cccc(NC(=O)c2ccc3ccccc3c2O)c1")
"NOT MET"
>>> category_label("CCCCOc1cccc(NC(=O)c2ccc3ccccc3c2O)c1 [12b]")
"MET"
>>> category_label("COc1ccccc1NC(=O)c1ccc2ccccc2c1O")
"NOT MET"
>>> category_label("CCCCOc1ccc(NC(=O)c2ccc3ccccc3c2O)cc1 [13b]")
"MET"
>>> category_label("CCC(C)Oc1ccc(NC(=O)c2ccc3ccccc3c2O)cc1 (stereo not shown) [19b]")
"MET"
>>> category_label("CC(C)Oc1ccccc1NC(=O)c1ccc2ccccc2c1O [14b]")
"MET"
